Measured pIC50, listed per entry.
ASSAYED_TARGET: CETP (Homo sapiens, UniProt P11597)
Sequence (P11597 18-493): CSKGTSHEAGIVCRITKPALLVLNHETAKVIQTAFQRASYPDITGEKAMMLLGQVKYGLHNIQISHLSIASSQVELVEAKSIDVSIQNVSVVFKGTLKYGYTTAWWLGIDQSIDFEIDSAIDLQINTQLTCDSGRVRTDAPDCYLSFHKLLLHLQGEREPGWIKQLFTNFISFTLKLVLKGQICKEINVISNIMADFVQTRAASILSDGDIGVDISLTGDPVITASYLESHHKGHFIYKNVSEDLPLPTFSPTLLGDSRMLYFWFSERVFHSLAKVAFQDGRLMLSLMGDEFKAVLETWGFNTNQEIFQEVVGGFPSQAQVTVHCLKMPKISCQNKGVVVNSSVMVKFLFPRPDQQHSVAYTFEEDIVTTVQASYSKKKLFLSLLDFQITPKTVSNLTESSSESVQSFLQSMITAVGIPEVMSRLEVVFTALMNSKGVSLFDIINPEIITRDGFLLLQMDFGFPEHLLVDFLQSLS
PROCEDURE_TEXT: Assay of CETP Inhibition in Human Plasma
Format: biochemical
Set-up: Blood was obtained from healthy volunteers, recruited from the personnel of Monsanto Company; from tissue; host or cells: human EDTA plasma pool from healthy volunteers
RUN_PARAMETERS: Inhibition of CETP activity in human plasma assay; transfer of [3H]CE from HDL to VLDL and LDL; read-out: IC50
Please keep in mind that pIC50 is minus log10 of the molar concentration; only the number is needed.

See these solved cases before continuing.
>>> assay_value("CCOc1cccc(N(Cc2cccc(OC(F)(F)F)c2)CC(O)C(F)(F)F)c1 (stereo not shown) [Example 128]")
4.46
>>> assay_value("Cc1ccc(CN(CC(O)C(F)(F)F)c2cccc(F)c2)cc1 (stereo not shown) [Example 33]")
3.30

Field: next compound
// pIC50 lookup, key: OC(CN(Cc1cccc(OC(F)(F)C(F)F)c1)c1cccc(Oc2ccc(Cl)cc2F)c1)C(F)(F)F (stereo not shown) [Example 265] 5.02

###

ASSAYED_TARGET: UniProt:P11597
PROCEDURE_TEXT: Assay of CETP Inhibition using Purified Components (Reconstituted Buffer Assay)
Type: biochemical
Parameters: made in house; host or cells: CHO cells (serum-free conditioned medium)
RUN_PARAMETERS: Inhibition of CETP activity in reconstituted buffer assay; transfer of [3H]CE from HDL to LDL; read-out: IC50
Protocol: Assay of CETP Inhibition using Purified Components (Reconstituted Buffer Assay) The ability of compounds to inhibit CETP activity was assessed using an in vitro assay that measured the rate of transfer of radiolabeled cholesteryl ester ([^3H]CE) from HDL donor particles to LDL acceptor particles. […] After filtration, the radioactivity present in the precipitated LDL was measured by liquid scintillation counting. […] Examples of IC50 values determined by these methods are specified in Table 9.
TEST_READOUT: IC50 (nM)
State just the number; it will be interpreted in nM.

See these solved cases before continuing.
>>> assay_value("OC(CN(Cc1ccc(F)c(-c2ccco2)c1)c1cccc(Oc2ccccc2)c1)C(F)(F)F (stereo not drawn)")
780
>>> assay_value("OC(CN(Cc1ccc(Cl)cc1)Cc1ccc(C(F)(F)F)cc1)C(F)(F)F (stereo not drawn)")
20000
>>> assay_value("OC(CN(Cc1cccc(OC(F)(F)C(F)F)c1)c1cccc(SCc2cc(Cl)cs2)c1)C(F)(F)F (stereo not drawn)")
1900
>>> assay_value("OC(CN(Cc1cccc(OC(F)(F)C(F)F)c1)c1cccc(OCc2ccc(Cl)cc2)c1)C(F)(F)F (stereo not drawn)")
780

Test system UniProt:P11597; read-out IC50; what value for OC(CN(Cc1cccc(C2CCCC2)c1)c1cccc(Oc2ccccc2)c1)C(F)(F)F (stereo not drawn) ? 310

Test system UniProt:P11597; read-out IC50; what value for OC(CN(Cc1cccc(OC(F)(F)F)c1)c1cccc(Cc2cccc(N(Cc3cccc(OC(F)(F)F)c3)CC(O)C(F)(F)F)c2)c1)C(F)(F)F (stereo not drawn) ? 80000

Test system UniProt:P11597; read-out IC50; what value for OC(CN(Cc1cccc(OC(F)(F)C(F)F)c1)c1cccc(Oc2ccccc2Cl)c1)C(F)(F)F (stereo not drawn) ? 270

Test system UniProt:P11597; read-out IC50; what value for OC(CN(Cc1cccc(OC(F)(F)C(F)F)c1)c1cccc(OCc2ccc(F)cc2C(F)(F)F)c1)C(F)(F)F (stereo not drawn) ? 1200
